Target: T1, dimeric human PRLR (hPRLR.mFc; SEQ ID NO:402) (Homo sapiens, UniProt P16471)
T1 construct: dimeric (hPRLR.mFc)
T1 sequence (P16471 with tags, fused parts or gaps): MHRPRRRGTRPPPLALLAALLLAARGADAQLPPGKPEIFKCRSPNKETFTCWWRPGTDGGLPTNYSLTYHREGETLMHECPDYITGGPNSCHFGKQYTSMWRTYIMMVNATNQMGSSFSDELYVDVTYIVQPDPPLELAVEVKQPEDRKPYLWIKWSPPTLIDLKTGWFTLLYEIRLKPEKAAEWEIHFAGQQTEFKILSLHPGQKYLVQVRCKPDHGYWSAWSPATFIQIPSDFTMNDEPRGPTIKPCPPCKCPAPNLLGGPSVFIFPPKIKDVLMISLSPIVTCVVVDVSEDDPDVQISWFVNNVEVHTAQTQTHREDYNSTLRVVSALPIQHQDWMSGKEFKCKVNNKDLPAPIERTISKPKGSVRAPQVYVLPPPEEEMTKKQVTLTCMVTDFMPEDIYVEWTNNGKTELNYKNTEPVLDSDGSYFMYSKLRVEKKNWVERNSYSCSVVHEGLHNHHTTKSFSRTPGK
Assay: Surface plasmon resonance (Biacore T200), antibody-capture format
Type: binding
Details: 37° C., analyte hPRLR.mFc
Procedure: Antibodies, expressed as human IgG1 Fc (i.e., “H1H” designations), were captured onto an anti-human Fc sensor surface (mAb-capture format), and soluble monomeric (hPRLR.mmh; SEQ ID NO:401, or Macaca fascicularis (mf) PRLR.mmh; SEQ ID NO:403) or dimeric (hPRLR.mFc; SEQ ID NO:402) PRLR protein was injected over the sensor surface. Measurements were conducted on a T200 Biacore instrument. […]
# kd listing for each entry below
Numbers only here, please. The scale is s⁻¹.

Worked examples, 3 molecules total:
| MOLECULE | UNIT OF MEASUREMENT | kd |
| --- | --- | --- |
| H1H6781P: fully human anti-PRLR antibody, human IgG1 Fc; HCVR/LCVR SEQ ID NOs 50/58 (antibody, V domains shown) VH: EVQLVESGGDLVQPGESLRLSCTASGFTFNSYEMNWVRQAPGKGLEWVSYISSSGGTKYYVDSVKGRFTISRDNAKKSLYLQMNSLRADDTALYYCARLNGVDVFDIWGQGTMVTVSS VL: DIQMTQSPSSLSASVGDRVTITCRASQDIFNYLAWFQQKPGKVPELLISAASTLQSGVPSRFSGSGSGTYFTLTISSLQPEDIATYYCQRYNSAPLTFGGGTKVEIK | s⁻¹ | 9.84e-05 |
| H1H6793P: fully human anti-PRLR antibody, human IgG1 Fc; HCVR/LCVR SEQ ID NOs 146/154 (antibody, V domains shown) VH: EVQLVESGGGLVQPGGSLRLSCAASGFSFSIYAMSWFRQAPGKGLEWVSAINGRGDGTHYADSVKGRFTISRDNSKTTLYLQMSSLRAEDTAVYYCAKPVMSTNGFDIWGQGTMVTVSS VL: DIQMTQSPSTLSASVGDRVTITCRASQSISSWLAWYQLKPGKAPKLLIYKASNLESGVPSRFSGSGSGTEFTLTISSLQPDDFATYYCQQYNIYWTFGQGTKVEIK | s⁻¹ | 0.000142 |
| H1H6797P: fully human anti-PRLR antibody, human IgG1 Fc; HCVR/LCVR SEQ ID NOs 178/186 (antibody, V domains shown) VH: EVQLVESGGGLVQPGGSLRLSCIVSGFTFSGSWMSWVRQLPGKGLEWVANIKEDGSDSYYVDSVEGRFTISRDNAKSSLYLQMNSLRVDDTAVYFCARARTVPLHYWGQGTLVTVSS VL: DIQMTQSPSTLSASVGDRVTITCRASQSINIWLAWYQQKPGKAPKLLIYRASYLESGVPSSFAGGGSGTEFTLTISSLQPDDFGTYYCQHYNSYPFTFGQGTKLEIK | s⁻¹ | 0.000125 |

input: Item under review: H1H6790P: fully human anti-PRLR antibody, human IgG1 Fc; HCVR/LCVR SEQ ID NOs 114/122 (antibody, V domains shown) VH: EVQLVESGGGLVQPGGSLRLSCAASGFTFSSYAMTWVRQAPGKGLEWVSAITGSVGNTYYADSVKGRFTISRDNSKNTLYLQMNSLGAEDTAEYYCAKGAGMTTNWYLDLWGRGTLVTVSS VL: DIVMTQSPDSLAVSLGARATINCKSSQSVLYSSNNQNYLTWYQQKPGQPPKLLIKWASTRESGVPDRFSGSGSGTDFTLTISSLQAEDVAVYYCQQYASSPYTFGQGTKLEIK . Reported kd?
output: 0.000198

input: Consider the molecule H1H6958N2: anti-PRLR antibody, receptor blocking, human IgG1 Fc form of H2M6958N2 of Table 1; HCVR/LCVR SEQ ID NOs 290/298 (antibody, V domains shown) VH: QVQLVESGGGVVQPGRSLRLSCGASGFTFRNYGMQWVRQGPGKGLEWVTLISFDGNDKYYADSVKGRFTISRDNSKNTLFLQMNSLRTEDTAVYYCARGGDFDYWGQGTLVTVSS VL: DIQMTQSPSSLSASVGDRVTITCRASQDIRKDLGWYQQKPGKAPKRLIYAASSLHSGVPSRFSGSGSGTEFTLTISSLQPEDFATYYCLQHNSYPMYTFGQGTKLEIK and give its measured kd.
output: 0.000139
